Entries annotated with measured growth
System: HCT-116 colon
assay.method.text: NCI-60 one-dose screen, 48 h (100 = growth as untreated, 0 = no growth, -100 = all killed)
test.parameters: 10 µM unless noted
Compounds without any hit were thinned out: in the full panel of roughly 83,000, 20% have a hit.
Only the number, expressed in %, is required.

Reference set (5 entries):
1. O=C(Nc1ccc(Oc2ccc(Nc3nc4ccccc4s3)cc2)cc1)Nc1ccc(Cl)c(C(F)(F)F)c1; 0.0223
2. Cc1ccc(S(=O)(=O)NC(CCC(=O)Nc2ccc(Cl)cc2)C(=O)Nc2ccc(Cl)cc2)cc1 (centres undefined); 23.8
3. CCN1CCN(Cc2ccc(NC(=O)c3nc4ccc5[nH]ncc5c4c4c3CCCC4)cc2C(F)(F)F)CC1; -77.9
4. CCN(CC)c1ccc2nc3c4ccccc4c(=O)cc-3n(-c3ccccc3)c2c1; -31.7
5. CCCN(CCC)CC(O)COc1ccccc1C(=O)Nc1ccccc1 (centres undefined); 50.6

(Q) What measured growth is associated with "Cc1c(-c2ccc(-c3ccccc3F)cc2)nc2ccc(F)cc2c1C(=O)O" on HCT-116 colon?
(A) 21

(Q) Now the compound "O=c1c2sc3ncc(Cl)cc3c2nnn1-c1cccc(Cl)c1"
(A) 31.3
